Molecular target: T1, SNTG2, Q9NY99
T1 sequence (Q9NY99 68-166, limits assumed, looked up): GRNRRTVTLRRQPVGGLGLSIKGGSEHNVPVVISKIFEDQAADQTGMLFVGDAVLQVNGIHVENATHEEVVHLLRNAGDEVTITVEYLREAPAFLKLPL
Assay: holdup assay
Set-up: key: below the threshold = too weak to quantify, mostly under pKd 3.1 to 4
Settings: plain residues with an end cap or a label only (N-terminal biotin on a linker: ado-ado)
PROPERTY: pKd

BINDER: NLSIEKETKL [ASNSD1, Q9NWL6]
REPORTED RESULT: 4.95
//
BINDER: RRISSLESEV [GRIN2C, Q14957]
REPORTED RESULT: 4.24
//
BINDER: RHGSCVETSL [TMEM151B, Q8IW70]
REPORTED RESULT: 4.8
//
BINDER: YRLAQESGLV [ABCC6, O95255]
REPORTED RESULT: 3.61
//
BINDER: SAKVRTVTSV [RASL11B, Q9BPW5]
REPORTED RESULT: 3.6
//
BINDER: TACCHSETVV [TGFA, P01135]
REPORTED RESULT: 4.38
//
BINDER: TKGPRGPTRV [SAPCD1, Q5SSQ6]
REPORTED RESULT: 4.18
//
BINDER: GQEEQVTTRL [TRPC5, Q9UL62]
REPORTED RESULT: 4.44
